Readings of SI (CC50/IC50) for the listed compounds
Tested on: RSV
run-description: RSV plaque reduction assay in HEp-2 cells
study-conditions: CC50 HEp-2 / anti-RSV IC50

>  <compound>
COc1cc2c(cc1-c1coc3c4c(c(OC)cc3c1=O)OC(C)(C)C=C4)OCO2

>  <inequality-sign>
=

>  <SI (CC50/IC50)>
11.4

$$$$
>  <compound>
COc1ccc2c(=O)c3c(oc2c1)COc1cc2c(cc1-3)OCO2

>  <inequality-sign>
=

>  <SI (CC50/IC50)>
4.1

$$$$
>  <compound>
CC(C)=CCOc1ccc(-c2coc3c4c(cc(O)c3c2=O)OC(C)(C)C=C4)cc1

>  <inequality-sign>
>

>  <SI (CC50/IC50)>
10

$$$$
>  <compound>
COc1ccc2c(c1)O[C@@H]1COc3c(cc(OC)c4c3OCO4)[C@@H]1C2=O

>  <inequality-sign>
=

>  <SI (CC50/IC50)>
1.0

$$$$
>  <compound>
CC(C)=CCOc1ccc(-c2coc3c4c(ccc3c2=O)OC(C)(C)C=C4)cc1

>  <inequality-sign>
>

>  <SI (CC50/IC50)>
47.6

$$$$
>  <compound>
COc1ccc2c(c1)O[C@@H]1COc3cc4c(cc3[C@]1(O)C2=O)OCO4

>  <inequality-sign>
=

>  <SI (CC50/IC50)>
35.7

$$$$
>  <compound>
COc1ccc2c(c1)O[C@@H]1COc3cc(OC)c(OC)cc3[C@]1(O)C2=O [Compound 8, 12a-hydroxymunduserone]

>  <inequality-sign>
=

>  <SI (CC50/IC50)>
28.0

$$$$
>  <compound>
COc1cc2c(cc1OC)C(=O)[C@@]1(O)c3cc4c(cc3OC[C@H]1O2)OCO4

>  <inequality-sign>
=

>  <SI (CC50/IC50)>
1.0

$$$$
>  <compound>
COc1c(O[C@@H]2O[C@H](CO[C@H]3O[C@H](C)[C@@H](O)[C@H](O)[C@@H]3O)[C@@H](O[C@@H]3O[C@H](CO[C@H]4O[C@H](C)[C@@H](O)[C@H](O)[C@@H]4O)[C@@H](O)[C@H](O)[C@H]3O)[C@H](O)[C@H]2O)cc2c(=O)c(-c3ccc4c(c3)OCO4)coc2c1OC

>  <inequality-sign>
=

>  <SI (CC50/IC50)>
1.0

$$$$
>  <compound>
COc1ccc2c(c1)O[C@@H]1COc3cc4c(cc3[C@@H]1C2=O)OCO4

>  <inequality-sign>
>

>  <SI (CC50/IC50)>
1.9

$$$$
